- MEASUREMENT_DESCRIPTION: chemical genetic growth profiling, strain panel (AID 1159580);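 further: tested at 20 µM; growth read once vehicle control cultures reached saturation at 30 °C; 1 = growth at the plate median or of vehicle wells; lower values mean less growth of the strain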
- EXPERIMENTAL_CONDITIONS: S. cerevisiae deletion strains, growth OD, strain TSCII, hits give low values
The campaign covered roughly 5,500 compounds. About 2,000 (36%) were called active. Roughly 18% stayed inconclusive and do not appear here. This is one part of the list.
TEST_READOUT: normalized growth
Provide a numeric answer; units are not to be included.

# SUBSTANCE_SMILES, normalized growth
rows = [
    ("COc1ccc(/C=C2\\CSc3ccc(F)cc3C2=O)cc1", 0.946),
    ("COc1cc(NC(=S)NC(=O)c2ccccc2)c(OC)cc1Cl", 1),
    ("COc1cc(NC(=S)N(C)C)c(OC)cc1Cl", 0.989),
    ("Cc1cc(C(=O)Nc2ccc(Cl)cc2)nn1C(C)(C)C", 0.985),
    ("O=S(=O)(Nc1cccc2nsnc12)c1cc(Cl)sc1Cl", 0.953),
]

Next up:
Query: Which normalized growth is reported for this compound? O=S(=O)(Nc1cccc(CCc2ccccn2)c1)c1cc(Cl)c(Cl)cc1Cl
Result: 0.978

----------
- MEASUREMENT_DESCRIPTION: chemical genetic growth profiling, strain panel (AID 1159580);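 further: tested at 20 µM; growth read once vehicle control cultures reached saturation at 30 °C; 1 = growth at the plate median or of vehicle wells; lower values mean less growth of the strain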
- EXPERIMENTAL_CONDITIONS: S. cerevisiae deletion strains, growth OD, locus YNL067W, strain RPL9B, hits give low values
About 2,000 (36%) of roughly 5,500 compounds were called active. Roughly 18% stayed inconclusive and do not appear here. The list shows a part of the results.
Lab note: cut-off is 1. Strictly less in normalized growth is satisfied. Exactly 1 or more is not satisfied.

Field: example entries. Status: answers known.
# MOLECULE, ANSWER_LABEL
rows = [
    ("CC1=C(/C=C/C(C)=C/C=C/C(C)=C/C=C/C=C(C)/C=C/C=C(C)/C=C/C2=C(C)C(=O)C(O)CC2(C)C)C(C)(C)CC(O)C1=O (configuration not stated)", "not satisfied"),
    ("CS(=O)(=O)c1ccc(C2=C(c3ccccc3)C(=O)OC2)cc1", "satisfied"),
    ("Cc1cc(O)c(C=O)c(O)c1C(=O)O", "not satisfied"),
]

Query: Criterion: normalized growth strictly below 1. Is it met by N=c1ccn2c(n1)O[C@@H]1C2O[C@H](CO)[C@H]1O (some centres not stated) ?
Result: not satisfied

Query: Also check CCN(CC)CCCC(C)Nc1c2ccc(Cl)cc2nc2ccc(OC)cc12 (configuration not stated)
Result: satisfied

Query: Would you mind doing CCOC(=O)c1c(C)cc(O)c(C=O)c1O as well?
Result: satisfied

Query: Now try COc1ccc2c(c1)O[C@@H]1COc3cc(OC)c(OC)cc3[C@@H]1C2=O .
Result: satisfied

----------
- MEASUREMENT_DESCRIPTION: chemical genetic growth profiling, strain panel (AID 1159580);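 further: tested at 20 µM; growth read once vehicle control cultures reached saturation at 30 °C; 1 = growth at the plate median or of vehicle wells; lower values mean less growth of the strain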
- EXPERIMENTAL_CONDITIONS: S. cerevisiae deletion strains, growth OD, locus YOR144C, strain elg1, hits give low values
Among all 5,500 compounds or so, about 2,000 (36%) were called active. Not shown: some 18% with an inconclusive outcome. The list shows a part of the results.
TEST_READOUT: normalized growth

# example entries with known answers
# COMPOUND, REPORTED_VALUE
measured = [
    ("O=C(O)c1c2ccccc2cc2ccccc12", "0.987 (inactive)"),
    ("CC(=O)OCC[N+](C)(C)C", "1.09 [resistant] (active)"),
    ("ClC1=C(Cl)C2(Cl)C3C(Cl)C=CC3C1(Cl)C2(Cl)Cl (configuration not stated)", "0.977 (inactive)"),
    ("CCS(=O)CCSP(=O)(OC)OC (configuration not stated)", "1.01 (inactive)"),
    ("O=C(O)c1cc2ccccc2c(Cc2c(O)c(C(=O)O)cc3ccccc23)c1O", "0.99 (inactive)"),
]

Query: Fill in: normalized growth of CC1=C(/C=C/C(C)=C/C=C/C(C)=C/C=C/C=C(C)/C=C/C=C(C)/C=C/C23OC2(C)CC(O)CC3(C)C)C(C)(C)CC(O)C1 (configuration not stated) is ___
Result: 0.998 (inactive)

Query: Proceed to OCC(O)C(O)C(O)CO (configuration not stated)
Result: 0.989 (inactive)
